# Study target: HLA-B*83:01
# Test summary: IEDB peptide-MHC binding, purified MHC/competitive/fluorescence; filed as Kd, often an IC50 or EC50 that approximates it; bounds were set here for any values at or beyond the usual limits of such assays
# Measurement context: source organism: Staphylococcus aureus subsp. aureus N315

[
  {
    "Sequence data": "YTIGIGAFY",
    "Study target": "HLA-B*83:01",
    "Kd": "≥ 5 µM"
  }
]

---

# Study target: HLA-A*68:02
# Test summary: IEDB peptide-MHC binding, purified MHC/competitive/radioactivity; filed as Kd, often an IC50 or EC50 that approximates it; bounds were set here for any values at or beyond the usual limits of such assays
# Measurement context: source organism: Dengue virus 1 Brazil/97-11/1997
pKd: −log10 of the molar value.
Label criterion not met if pKd falls below 8; label criterion met in every other case.

[
  {
    "Sequence data": "NTTANISLTA",
    "Label class": "criterion not met"
  },
  {
    "Sequence data": "FIAFLRFLAI",
    "Label class": "criterion not met"
  },
  {
    "Sequence data": "MVSAGSGEV",
    "Label class": "criterion not met"
  },
  {
    "Sequence data": "DTAWDFGSI",
    "Label class": "criterion met"
  },
  {
    "Sequence data": "LVMAFIAFL",
    "Label class": "criterion not met"
  }
]

---

# Study target: HLA-A*31:01
# Test summary: IEDB peptide-MHC binding, purified MHC/competitive/radioactivity; filed as Kd, often an IC50 or EC50 that approximates it; bounds were set here for any values at or beyond the usual limits of such assays
# Measurement context: source organism: Vaccinia virus WR
Below, each of the sequences is paired with its reported Kd value.

[
  {
    "Sequence data": "SSRVDRYSK",
    "Kd": "0.266 µM"
  },
  {
    "Sequence data": "LVYIFEPEK",
    "Kd": "≥ 21.1 µM"
  },
  {
    "Sequence data": "DIFMRDWNSK",
    "Kd": "12.4 µM"
  },
  {
    "Sequence data": "DFRDYQSYR",
    "Kd": "0.0745 µM"
  },
  {
    "Sequence data": "LLVKMINHLK",
    "Kd": "5.42 µM"
  },
  {
    "Sequence data": "VLKAMHDKK",
    "Kd": "0.126 µM"
  },
  {
    "Sequence data": "KSIENKHQR",
    "Kd": "0.00155 µM"
  },
  {
    "Sequence data": "ITSTKTIEY",
    "Kd": "15.1 µM"
  },
  {
    "Sequence data": "KLILAEYIR",
    "Kd": "0.0681 µM"
  },
  {
    "Sequence data": "IVTMMKYCSY",
    "Kd": "0.0316 µM"
  },
  {
    "Sequence data": "WLYYNQDVQR",
    "Kd": "0.222 µM"
  },
  {
    "Sequence data": "GVRVRVAVNK",
    "Kd": "12.1 µM"
  },
  {
    "Sequence data": "RAVKFAEESY",
    "Kd": "≥ 70 µM"
  },
  {
    "Sequence data": "CVDIFTEGK",
    "Kd": "16.3 µM"
  },
  {
    "Sequence data": "VVKDDPDHY",
    "Kd": "≥ 77.9 µM"
  },
  {
    "Sequence data": "TMPNESRVK",
    "Kd": "≥ 61.6 µM"
  },
  {
    "Sequence data": "IISIRPRVTK",
    "Kd": "0.425 µM"
  },
  {
    "Sequence data": "VAEHRFENMK",
    "Kd": "≥ 34.7 µM"
  },
  {
    "Sequence data": "LIKTILASY",
    "Kd": "7.44 µM"
  },
  {
    "Sequence data": "NIQKITVFNK",
    "Kd": "0.00389 µM"
  },
  {
    "Sequence data": "HVCNATDFWR",
    "Kd": "0.00814 µM"
  },
  {
    "Sequence data": "PAGRPNYVK",
    "Kd": "0.012 µM"
  },
  {
    "Sequence data": "DSDVSLIIEY",
    "Kd": "10.3 µM"
  },
  {
    "Sequence data": "ILEYLYIMR",
    "Kd": "0.0976 µM"
  },
  {
    "Sequence data": "CIRNASKFVY",
    "Kd": "≥ 70 µM"
  },
  {
    "Sequence data": "DLLFNEKLK",
    "Kd": "8.15 µM"
  },
  {
    "Sequence data": "HIIDSFNIR",
    "Kd": "0.00112 µM"
  },
  {
    "Sequence data": "STAEQLSKY",
    "Kd": "≥ 77.9 µM"
  },
  {
    "Sequence data": "DVSLSAYIIR",
    "Kd": "0.387 µM"
  },
  {
    "Sequence data": "PVSDLYTSMR",
    "Kd": "0.539 µM"
  },
  {
    "Sequence data": "VIEYAKSISK",
    "Kd": "10.8 µM"
  },
  {
    "Sequence data": "DILSIIDAK",
    "Kd": "≥ 77.9 µM"
  },
  {
    "Sequence data": "FIQWTGGNIR",
    "Kd": "3.86 µM"
  },
  {
    "Sequence data": "EIARIENEMK",
    "Kd": "≥ 70 µM"
  },
  {
    "Sequence data": "VSTGESSILR",
    "Kd": "1.39 µM"
  },
  {
    "Sequence data": "VTPEYIKDLK",
    "Kd": "15.1 µM"
  },
  {
    "Sequence data": "FSSLRREHIK",
    "Kd": "0.144 µM"
  },
  {
    "Sequence data": "GSSKGNCAIK",
    "Kd": "3.48 µM"
  },
  {
    "Sequence data": "HVDGKILFV",
    "Kd": "≥ 40.5 µM"
  },
  {
    "Sequence data": "DFLKDDTLSK",
    "Kd": "≥ 70 µM"
  },
  {
    "Sequence data": "ILAALFMYY",
    "Kd": "6.4 µM"
  },
  {
    "Sequence data": "SMTIREFPRK",
    "Kd": "0.0396 µM"
  },
  {
    "Sequence data": "ISAEKTPIR",
    "Kd": "≥ 41.7 µM"
  },
  {
    "Sequence data": "RSAFNDDGIY",
    "Kd": "≥ 70 µM"
  }
]

---

# Study target: HLA-A*03:01
# Test summary: IEDB peptide-MHC binding, purified MHC/competitive/fluorescence; filed as Kd, often an IC50 or EC50 that approximates it; bounds were set here for any values at or beyond the usual limits of such assays
# Measurement context: source organism: Bacillus cereus G9241
Endpoint name: Kd (nM)

[
  {
    "Sequence data": "MLYDRINLR",
    "Endpoint name": "Kd",
    "Display unit": "nM",
    "Measured number": 10.7
  }
]

---

# Study target: HLA-B*40:01
# Test summary: IEDB peptide-MHC binding, purified MHC/competitive/radioactivity; filed as Kd, often an IC50 or EC50 that approximates it; bounds were set here for any values at or beyond the usual limits of such assays
# Measurement context: source organism: Lymphocytic choriomeningitis virus (strain Armstrong)
pKd: −log10 of the molar value.

[
  {
    "Sequence data": "IEVALRTLL",
    "pKd": 7.19
  }
]

---

# Study target: HLA-C*15:02
# Test summary: IEDB peptide-MHC binding, purified MHC/direct/fluorescence; filed as Kd, often an IC50 or EC50 that approximates it; bounds were set here for any values at or beyond the usual limits of such assays
# Measurement context: source organism: Salmonella enterica subsp. enterica serovar Typhi str. CT18

[
  {
    "Sequence data": "SVIDHIHYM",
    "Study target": "HLA-C*15:02",
    "Display unit": "nM",
    "Kd": 95
  }
]

---

# Study target: HLA-A*02:01
# Test summary: IEDB peptide-MHC binding, purified MHC/direct/fluorescence; filed as Kd, often an IC50 or EC50 that approximates it; bounds were set here for any values at or beyond the usual limits of such assays
# Measurement context: source organism: Corynebacterium glutamicum
pKd: −log10 of the molar value.
Endpoint name: pKd

[
  {
    "Sequence data": "VHDREGNEV",
    "Result": "≤ 4.70"
  }
]

---

# Study target: HLA-B*46:01
# Test summary: IEDB peptide-MHC binding, purified MHC/direct/fluorescence; filed as Kd, often an IC50 or EC50 that approximates it; bounds were set here for any values at or beyond the usual limits of such assays
# Measurement context: source organism: Escherichia coli O157:H7
Endpoint name: Kd

[
  {
    "Sequence data": "MLKLRQARL",
    "Result": "≥ 20 µM"
  }
]
